target: Uridine-cytidine kinase 2 (Homo sapiens, UniProt Q9BZX2); assay: Non-competitive inhibition of C-terminally His6-tagged human UCK2 expressed in Escherichia coli BL21(DE3) cells using uridine, phosphoenolpyruvate, NADH and varying ATP level by spectrophotometry based pyruvate kinase and lactate dehydrogenase coupled enzyme assay
Endpoint: pKi
Give only the number. pKi is defined as minus log10 of concentration in molar units.

Could you share what pKi was measured for Cc1cc(C)cc(NC(=O)CSCn2[nH]nc3c(=O)nc(Cc4ccc(F)cc4)nc2-3)c1 , tested on Uridine-cytidine kinase 2 (Homo sapiens, UniProt Q9BZX2)? 4.51

O=C(CSc1nc2n(-c3ccc(F)cc3)[nH]cc-2c(=O)n1)Nc1ccc(Br)cc1 , same question. 4.92

Entry to check: Cc1ccc(-c2nc3c(c(SCC(=O)Nc4cccc(C(=O)O)c4)n2)Cc2cccc(C)c2O3)cc1 6.00

----------
Could you please report measured inhibition for the items listed next?
Biological target: Uridine-cytidine kinase 2 (Homo sapiens) (UniProt Q9BZX2)
Sequence (whole entry): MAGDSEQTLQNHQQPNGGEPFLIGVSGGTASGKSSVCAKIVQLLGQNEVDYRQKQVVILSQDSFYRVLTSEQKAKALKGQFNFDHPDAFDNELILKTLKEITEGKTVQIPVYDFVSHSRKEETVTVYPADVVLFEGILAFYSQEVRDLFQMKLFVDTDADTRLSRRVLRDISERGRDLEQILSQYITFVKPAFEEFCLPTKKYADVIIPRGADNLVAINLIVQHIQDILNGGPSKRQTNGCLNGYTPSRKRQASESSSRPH
Assay: Inhibition of UCK2 in human K562 cells assessed as inhibition of uridine salvage at 50 uM incubated for 24 hrs by 5-ethynyl-uridine incorporation assay
Format: cell-based

Quick one: inhibition for Cc1cc(C)cc(NC(=O)CSCn2[nH]nc3c(=O)nc(Cc4ccc(F)cc4)nc2-3)c1 ? 41.5%

Follow-up entry: Cc1cccc2c1Oc1nc(-c3ccccc3)nc(SCC(=O)Nc3cccc(C(=O)O)c3)c1C2 49.6%

Then what about the compound Cc1ccc(-c2nc3c(c(SCC(=O)Nc4cccc(C(=O)O)c4)n2)Cc2cccc(C)c2O3)cc1 ? 51.7%

Entry to check: Cc1ccccc1NC(=O)CSCn1[nH]nc2c(=O)nc(Cc3ccc(F)cc3)nc1-2 26.3%

Same lookup for COc1cccc2c1Oc1nc(-c3ccc(C)cc3)nc(SCC(=O)Nc3cccc(C(=O)O)c3)c1C2 , please. 14.9%

Request: O=C(CSc1nc2n(-c3ccc(F)cc3)[nH]cc-2c(=O)n1)Nc1ccc(Br)cc1 31.3%

----------
Target: Uridine-cytidine kinase 2 (Homo sapiens, UniProt Q9BZX2)
Sequence (Q9BZX2 whole entry): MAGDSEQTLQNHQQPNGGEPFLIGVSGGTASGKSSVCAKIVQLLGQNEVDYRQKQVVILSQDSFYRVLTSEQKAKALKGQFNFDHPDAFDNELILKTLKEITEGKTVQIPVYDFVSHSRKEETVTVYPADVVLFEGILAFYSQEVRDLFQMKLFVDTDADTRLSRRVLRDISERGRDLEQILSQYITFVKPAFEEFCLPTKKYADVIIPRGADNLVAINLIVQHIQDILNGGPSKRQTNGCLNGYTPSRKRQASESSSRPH
Assay: Inhibition of C-terminally His6-tagged human UCK2 expressed in Escherichia coli BL21(DE3) cells incubated for 15 mins before ATP addition and measured after 60 mins by ADP-Glo kinase assay
Conditions: read-out: IC50
Endpoint: log10 of IC50 (log10 of the value in µM)
log10 IC50, µM

Dear colleague, I am looking for the recorded log10 of IC50 of the following compound: COc1cccc2c1Oc1nc(-c3ccc(C)cc3)nc(SCC(=O)Nc3cccc(C(=O)O)c3)c1C2 1.07

Ok, now Cc1ccc(-c2nc3c(c(SCC(=O)Nc4cccc(C(=O)O)c4)n2)Cc2cccc(C)c2O3)cc1 0.58

Another compound: Cc1cc(C)cc(NC(=O)CSCn2[nH]nc3c(=O)nc(Cc4ccc(F)cc4)nc2-3)c1 1.68

Item: Cc1cccc2c1Oc1nc(-c3ccccc3)nc(SCC(=O)Nc3cccc(C(=O)O)c3)c1C2 0.67

Similarly, Cc1ccc(-c2nc3c(c(SCC(=O)Nc4ccccc4)n2)Cc2cccc(C)c2O3)cc1 ? 1.43

----------
Biological target: Uridine-cytidine kinase 2 (Homo sapiens, UniProt Q9BZX2)
Sequence (Q9BZX2 whole entry): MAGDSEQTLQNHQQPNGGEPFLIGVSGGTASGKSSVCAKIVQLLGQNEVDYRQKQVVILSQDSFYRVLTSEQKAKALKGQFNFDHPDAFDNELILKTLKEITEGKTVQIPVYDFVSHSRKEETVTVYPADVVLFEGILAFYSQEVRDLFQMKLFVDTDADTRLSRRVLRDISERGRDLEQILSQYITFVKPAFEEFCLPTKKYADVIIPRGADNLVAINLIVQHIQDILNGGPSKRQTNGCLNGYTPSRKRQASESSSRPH
Assay: Inhibition of C-terminally His6-tagged human UCK2 expressed in Escherichia coli BL21(DE3) cells incubated for 15 mins before ATP addition and measured after 60 mins by ADP-Glo kinase assay based HTS assay
pIC50: −log10 of the molar value.
Threshold rule: pIC50 greater than or equal to 4 is rule met; below that, rule not met.

For this compound, is measured pIC50 4 or higher? O=C(CSc1nc(-c2ccc(O)cc2)nc2c1Cc1ccccc1O2)Nc1cccc(C(=O)O)c1 rule not met

Then O=C(CSc1nc2n(-c3ccc(F)cc3)[nH]cc-2c(=O)n1)Nc1ccc(Br)cc1 ? rule met

Please answer likewise for Cc1cc(C)cc(NC(=O)CSCn2[nH]nc3c(=O)nc(Cc4ccc(F)cc4)nc2-3)c1 rule met

Can you handle CC(C)(C)c1ccc(-c2nc(SCC(=O)Nc3ccc(Cl)cc3)[nH]c(=O)c2C#N)cc1 next? rule not met

Repeat with O=C(CSc1nc(-c2ccc(F)cc2)nc2c1Cc1ccccc1O2)Nc1cccc(C(=O)O)c1 rule not met

Query Cc1ccc(-c2nc3c(c(SCC(=O)Nc4cccc(C(=O)O)c4)n2)Cc2cccc(C)c2O3)cc1 next rule met
